Hey, just so you know, these numbers are from patent US5837728A.

Test system: ornithine decarboxylase (ODC)
Test: ODC/Retinoid Bioassay: inhibition of TPA induced ornithine decarboxylase activity
Type: in vivo, CD-1 mice
Details: topical, 1.7 nM (as printed in Table 2), TPA induced
PROPERTY: ODC activity reduction

Field: example entries. Status: answers known.
MOLECULE	PROPERTY	RESULT
CC1=C(/C=C/C(C)=C\C=C\C(C)=C\C(=O)ON2C(=O)CCC2=O)C(C)(C)CCC1 [Compound 10, Succinimidyl 9-cis-retinoate]	ODC activity reduction	+++
CCCCCCCCCC(=O)OCC(=O)COC(=O)/C=C(C)/C=C/C=C(C)\C=C\C1=C(C)CCCC1(C)C	ODC activity reduction	+++
CC1=C(/C=C/C(C)=C\C=C\C(C)=C\C(=O)OCC(=O)c2ccccc2)C(C)(C)CCC1 [Compound 5, 9-cis-retinoyloxy methyl phenyl ketone]	ODC activity reduction	++
CC1=C(/C=C/C(C)=C\C=C\C(C)=C\C(=O)OCOC(=O)C(C)(C)C)C(C)(C)CCC1	ODC activity reduction	+++
COc1ccc(C(=O)COC(=O)/C=C(C)/C=C/C=C(C)\C=C\C2=C(C)CCCC2(C)C)cc1	ODC activity reduction	++
CCCCCCCC/C=C\CCCCCCCC(=O)OCC(COC(=O)/C=C(C)/C=C/C=C(C)\C=C\C1=C(C)CCCC1(C)C)OC(=O)CCCCCCC/C=C\CCCCCCCC (centres unmarked)	ODC activity reduction	++
CC1=C(/C=C/C(C)=C\C=C\C(C)=C\C(=O)OCC(=O)CO)C(C)(C)CCC1	ODC activity reduction	+++

Now examine the next entry.
Summary for this molecule, CC1=C(/C=C/C(C)=C\C=C\C(C)=C\C(=O)OCC(=O)COC(=O)/C=C(C)/C=C/C=C(C)\C=C\C2=C(C)CCCC2(C)C)C(C)(C)CCC1 [Compound 4, 1,3-bis-(9-cis-retinoyloxy)-2-propanone] : ODC activity reduction is +++
